Test system: human tumor cell lines with different p53 status
PROTOCOL NOTES: Cell growth inhibition assay (Calcein AM)
Assay type: cell-based
COND: cell growth, Calcein AM, incubation for 3 days; cell line not stated
Procedure: Cell growth inhibition assay using human tumor cell lines with different p53 status (wildtype, null, p53-R175H or other zinc binding deficient mutants) were employed to determine if a test compound functions as a zinc metallochaperone to restore wildtype p53 functions. The cell growth inhibition assay was performed by Calcein AM assay (Trevigen). […] Growth was measured by Calcein AM assay (Trevigen) and Victor Plate reader instrument (PerkinElmer) after incubation for 3 days.
VALUE TYPE: EC50 (nM)
Output spec: scalar in nM, unitless text.

* C/C(=N\NC(=S)N(C)C)c1ncccc1CN1CCOCC1.C/C(=N\NC(=S)N(C)C)c1ncccc1CN1CCOCC1.[Zn] | 8.36

Query string: What does the data say about its EC50? Entry: "COCCOCc1cccnc1/C(C)=N/NC(=S)N(C)C.COCCOCc1cccnc1/C(C)=N/NC(=S)N(C)C.[Zn]"
Result string: 5.41

Query string: Could you do the same for "COCCOCc1ccnc(/C(C)=N/NC(=S)N(C)C)c1.COCCOCc1ccnc(/C(C)=N/NC(=S)N(C)C)c1.[Zn]" , please?
Result string: 2.52
